# measuredOn: T1, ZFP SBS#243 (synthetic)
# T1 chain: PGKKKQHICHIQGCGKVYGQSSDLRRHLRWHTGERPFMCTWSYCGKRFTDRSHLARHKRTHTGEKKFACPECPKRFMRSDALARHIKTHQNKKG
# measurementProtocol: EMSA
# testSettings: tags: MBP fusion
outcomeMeasure: pKd
// scale note: pKd = -log10(conc_M); give the bare number

Q: # pKd lookup, item GTGGGCGCT (dsDNA) DNA 1: GTGGGCGCT DNA 2: AGCGCCCAC
Result: 7.12
